Target: Glucocorticoid receptor (Homo sapiens, UniProt P04150)
Assay: Transrepression activity at GR in IL-1-beta-stimulated human A549 cells assessed as inhibition of NF-kappaB-dependent E-selectin transcription by luciferase reporter gene assay
Assay type: cell-based
assay-endpoint: pEC50
Quick note: pEC50 values are minus log10 of concentrations in mol/L.

Notebook: CC12CC(C)(C(=O)Nc3nncs3)C(c3ccccc31)c1ccccc12 (stereo in doubt; 18b) , pEC50 read as 6.82

###

Target: Glucocorticoid receptor (Homo sapiens)
Sequence (P04150 whole entry): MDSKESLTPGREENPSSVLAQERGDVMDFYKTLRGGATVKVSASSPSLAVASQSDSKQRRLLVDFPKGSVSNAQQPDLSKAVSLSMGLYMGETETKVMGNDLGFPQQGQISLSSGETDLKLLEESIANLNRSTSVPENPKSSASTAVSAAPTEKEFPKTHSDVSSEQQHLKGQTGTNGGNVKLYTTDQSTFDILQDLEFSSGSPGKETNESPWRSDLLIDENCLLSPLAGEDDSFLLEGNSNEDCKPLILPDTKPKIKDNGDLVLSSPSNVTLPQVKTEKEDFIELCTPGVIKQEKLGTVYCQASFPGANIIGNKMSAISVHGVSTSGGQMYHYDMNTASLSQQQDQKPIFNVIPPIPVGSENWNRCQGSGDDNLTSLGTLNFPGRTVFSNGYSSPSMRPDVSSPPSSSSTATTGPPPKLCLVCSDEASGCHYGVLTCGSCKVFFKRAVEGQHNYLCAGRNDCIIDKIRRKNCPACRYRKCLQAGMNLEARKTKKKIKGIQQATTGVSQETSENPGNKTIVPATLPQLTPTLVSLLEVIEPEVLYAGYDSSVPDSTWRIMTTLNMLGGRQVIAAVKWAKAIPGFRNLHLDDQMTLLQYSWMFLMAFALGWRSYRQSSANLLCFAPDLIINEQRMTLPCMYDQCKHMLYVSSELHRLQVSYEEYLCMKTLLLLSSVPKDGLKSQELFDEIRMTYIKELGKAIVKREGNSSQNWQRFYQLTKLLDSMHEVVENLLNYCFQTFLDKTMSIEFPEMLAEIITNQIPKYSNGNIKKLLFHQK
Assay: Agonist activity at GR ligand binding domain expressed in human NP1 cells assessed as glucocorticoid response element transactivation by GAL4 luciferase reporter gene assay
Format: cell-based
pEC50: −log10 of the molar value.
The following compounds are listed with their measured pEC50 values.

Notebook: CC1(C(=O)Nc2nccs2)CC2([N+](=O)[O-])c3ccccc3C1c1ccccc12 (stereo unspecified) , pEC50 read as < 5.00

Notebook: CC12CC(C)(C(=O)Nc3nncs3)C(c3ccccc31)c1ccccc12 (single isomer, unassigned; isomer A) , pEC50 read as 6.96

Notebook: CC1(C(=O)Nc2nccs2)CC2c3ccccc3C1c1ccccc12 (stereo unspecified) , pEC50 read as < 5.00

Notebook: CC1(C(=O)Nc2nccs2)CC2(Cl)c3ccccc3C1c1ccccc12 (stereo unspecified) , pEC50 read as 6.49

Notebook: CC12CC(C)(C(=O)Nc3nncs3)C(c3ccccc31)c1ccccc12 (stereo in doubt; 18b) , pEC50 read as < 5.60

Notebook: CC12CC(C)(C(=O)Nc3nncs3)C(c3ccccc31)c1ccccc12 (stereo in doubt; 18) , pEC50 read as < 5.00

###

Target: UniProtKB P04150
Experiment: Displacement of FITC-dexamethasone from human recombinant glucocorticoid receptor alpha by fluorescence polarization assay
Hi! Just check whether Ki is below 10 nM. Below gives yes (1), equal or above gives no (0).

[
  {
    "compound": "Cc1cnc(NC(=O)C2(C)CC3c4ccccc4C2c2ccccc23)s1 (single isomer, unassigned; isomer A)",
    "group-label": "yes (1)"
  },
  {
    "compound": "CC1(C(=O)Nc2nccs2)CC2c3ccccc3C1c1ccccc12 (stereo not given)",
    "group-label": "yes (1)"
  },
  {
    "compound": "CN(C(=O)C1(C)CC2c3ccccc3C1c1ccccc12)c1nccs1 (stereo not given)",
    "group-label": "no (0)"
  },
  {
    "compound": "C[C@@]1(C(=O)Nc2nccs2)CC2(C#N)c3ccccc3C1c1ccccc12",
    "group-label": "yes (1)"
  }
]

Lab log: compare recorded Ki with 10 nM; is it strictly lower for Cc1cnc(NC(=O)C2(C)CC3c4ccccc4C2c2ccccc23)s1 (stereo in doubt; 3) ?
no (0)

###

The following compounds are listed with their measured pEC50 values.
Target: UniProtKB P04150
Experiment: Agonist activity at GR ligand binding domain expressed in human NP1 cells assessed as glucocorticoid response element transactivation by GAL4 luciferase reporter gene assay
Format: cell-based
pEC50: −log10 of the molar value.

Use the examples below as a reference point.
[
  {
    "compound": "CC1(C(=O)Nc2nccs2)CC2c3ccccc3C1([N+](=O)[O-])c1ccccc12 (stereo not given)",
    "target-or-test-system": "UniProtKB P04150",
    "observed": "< 5.00"
  },
  {
    "compound": "CC1(C(=O)Nc2nccs2)CC2c3ccccc3C1(C#N)c1ccccc12 (stereo not given)",
    "target-or-test-system": "UniProtKB P04150",
    "observed": "< 5.00"
  },
  {
    "compound": "CC1(C(=O)Nc2nccs2)CC2(Br)c3ccccc3C1c1ccccc12 (stereo not given)",
    "target-or-test-system": "UniProtKB P04150",
    "observed": 6.76
  }
]

Notebook: `C[C@@]1(C(=O)Nc2nccs2)CC2(C#N)c3ccccc3C1c1ccccc12` , pEC50 read as < 5.00

Notebook: `C[C@]1(C(=O)Nc2nccs2)CC2(C#N)c3ccccc3C1c1ccccc12` , pEC50 read as < 5.00

###

The following compounds are listed with their measured pKi values.
Molecular target: Glucocorticoid receptor (Homo sapiens, UniProt P04150)
Test: Displacement of FITC-dexamethasone from human recombinant glucocorticoid receptor alpha by fluorescence polarization assay
Quick note: pKi values are minus log10 of concentrations in mol/L.

Use the examples below as a reference point.
[
  {
    "compound": "CC12CC(C)(C(=O)Nc3nncs3)C(c3ccccc31)c1ccccc12 (single isomer, unassigned; isomer A)",
    "target-or-test-system": "Glucocorticoid receptor (Homo sapiens, UniProt P04150)",
    "assay-endpoint": "pKi",
    "observed": 8.89
  },
  {
    "compound": "Cc1nc(NC(=O)C2(C)CC3c4ccccc4C2c2ccccc23)sc1C (stereo not given)",
    "target-or-test-system": "Glucocorticoid receptor (Homo sapiens, UniProt P04150)",
    "assay-endpoint": "pKi",
    "observed": 7.65
  },
  {
    "compound": "C[C@@]1(C(=O)Nc2nccs2)CC2c3ccccc3C1c1ccccc12",
    "target-or-test-system": "Glucocorticoid receptor (Homo sapiens, UniProt P04150)",
    "assay-endpoint": "pKi",
    "observed": 8.89
  },
  {
    "compound": "CC1(C(=O)Nc2ccc([N+](=O)[O-])cc2O)CC2c3ccccc3C1c1ccccc12 (stereo not given)",
    "target-or-test-system": "Glucocorticoid receptor (Homo sapiens, UniProt P04150)",
    "assay-endpoint": "pKi",
    "observed": 6.80
  },
  {
    "compound": "CC12CC(C)(C(=O)Nc3nccs3)C(c3ccccc31)c1ccccc12 (single isomer, unassigned; isomer B)",
    "target-or-test-system": "Glucocorticoid receptor (Homo sapiens, UniProt P04150)",
    "assay-endpoint": "pKi",
    "observed": 7.17
  },
  {
    "compound": "C[C@]1(C(=O)Nc2nccs2)CC2c3ccccc3C1c1ccccc12",
    "target-or-test-system": "Glucocorticoid receptor (Homo sapiens, UniProt P04150)",
    "assay-endpoint": "pKi",
    "observed": 7.58
  },
  {
    "compound": "Cc1csc(NC(=O)C2(C)CC3c4ccccc4C2c2ccccc23)n1 (stereo not given)",
    "target-or-test-system": "Glucocorticoid receptor (Homo sapiens, UniProt P04150)",
    "assay-endpoint": "pKi",
    "observed": 8.06
  },
  {
    "compound": "C[C@]1(C(=O)Nc2nccs2)CC2(C#N)c3ccccc3C1c1ccccc12",
    "target-or-test-system": "Glucocorticoid receptor (Homo sapiens, UniProt P04150)",
    "assay-endpoint": "pKi",
    "observed": 7.42
  }
]

Entry CC1(C(=O)Nc2ncc[nH]2)CC2c3ccccc3C1c1ccccc12 (stereo not given) : pKi on Glucocorticoid receptor (Homo sapiens, UniProt P04150) = 7.03

Entry CC12CC(C)(C(=O)Nc3nncs3)C(c3ccccc31)c1ccccc12 (stereo in doubt; 18b) : pKi on Glucocorticoid receptor (Homo sapiens, UniProt P04150) = 7.30

###

The following molecules are listed with their measured EC50 values.
Target: UniProt P04150
Assay: Transrepression activity at GR in PMA-stimulated human A549 cells assessed as inhibition of AP1 response element-induced luciferase reporter gene activity
Type: cell-based
Reply numerically in nM, unit not repeated.

Use the examples below as a reference point.
[
  {
    "molecule": "Cc1cnc(NC(=O)C2(C)CC3c4ccccc4C2c2ccccc23)s1 (single isomer, unassigned; isomer B)",
    "observed": 972
  },
  {
    "molecule": "Cc1cnc(NC(=O)C2(C)CC3c4ccccc4C2c2ccccc23)s1 (single isomer, unassigned; isomer A)",
    "observed": 345
  },
  {
    "molecule": "C[C@]1(C(=O)Nc2nccs2)CC2c3ccccc3C1c1ccccc12",
    "observed": 544
  }
]

Notebook: CC1(C(=O)Nc2nccs2)CC2([N+](=O)[O-])c3ccccc3C1c1ccccc12 (centres undefined) , EC50 read as 1070

Notebook: CC12CC(C)(C(=O)Nc3nncs3)C(c3ccccc31)c1ccccc12 (single isomer, unassigned; isomer A) , EC50 read as 11.4

Notebook: `C[C@@]1(C(=O)Nc2nccs2)CC2c3ccccc3C1c1ccccc12` , EC50 read as 115

Notebook: CC1(C(=O)Nc2nccs2)CC2(C#N)c3ccccc3C1c1ccccc12 (centres undefined) , EC50 read as 331

Measured values drawn from ChEMBL document CHEMBL1138590 for this set.
